B1: library; numbered along this chain (parent)
chain: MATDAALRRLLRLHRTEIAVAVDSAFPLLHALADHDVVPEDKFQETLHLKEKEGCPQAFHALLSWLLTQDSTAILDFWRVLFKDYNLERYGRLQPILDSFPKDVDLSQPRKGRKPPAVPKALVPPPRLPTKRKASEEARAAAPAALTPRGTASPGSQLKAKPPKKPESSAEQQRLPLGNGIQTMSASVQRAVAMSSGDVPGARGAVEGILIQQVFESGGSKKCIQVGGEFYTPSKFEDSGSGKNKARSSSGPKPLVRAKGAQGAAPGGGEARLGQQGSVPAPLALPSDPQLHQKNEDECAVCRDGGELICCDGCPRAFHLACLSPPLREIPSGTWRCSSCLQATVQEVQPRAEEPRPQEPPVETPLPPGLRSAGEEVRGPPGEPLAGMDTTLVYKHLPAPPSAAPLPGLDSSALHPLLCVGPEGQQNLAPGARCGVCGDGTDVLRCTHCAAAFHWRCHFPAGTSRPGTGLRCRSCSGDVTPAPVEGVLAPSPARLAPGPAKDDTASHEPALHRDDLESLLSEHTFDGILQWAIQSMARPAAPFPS

- Variants of: B1
- METHOD_DESCRIPTION: AIRE transcriptional activation functional score (insulin promoter-GFP; nonsense median 0, synonymous median 1) (normalised score); higher = higher AIRE activity (more reporter activation)
- RECORDED_CONDITIONS: with insulin promoter-GFP reporter in HEK293
The class of a record is decided solely by its measured AIRE transcriptional activation functional score; consult lower = under 0.6, middle = from 0.6 up to 1, upper = 1 and over

These recorded examples may help you get a feel for the data.
{"VARIANT_CODE": "G240L", "CLASS_NAME": "upper"}
{"VARIANT_CODE": "D198Q", "CLASS_NAME": "middle"}
{"VARIANT_CODE": "R9N", "CLASS_NAME": "upper"}
{"VARIANT_CODE": "W65C", "CLASS_NAME": "lower"}
{"VARIANT_CODE": "G269D", "CLASS_NAME": "middle"}

In: Each variant maps to one class by AIRE transcriptional activation functional score. Which class for G306S ?
Out: middle

In: Each variant maps to one class by AIRE transcriptional activation functional score. Which class for W65T ?
Out: upper

In: Each variant maps to one class by AIRE transcriptional activation functional score. Which class for A500N ?
Out: middle

In: Each variant maps to one class by AIRE transcriptional activation functional score. Which class for V301G ?
Out: upper
